B1: ISL2 (parent)
chain: HYPFLGAMGDHSKKKPGTAMCVGC

- Variants of: B1
- test-details: protein stability index of a GFP-peptide fusion (GPS, HEK-293T) (PSI 1-6); higher = more stable;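 note: lentivirally expressed fusions sorted by FACS into six bins by GFP to DsRed ratio, PSI derived from sequencing read proportions per bin multiplied by bin number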
- applied-conditions: c terminus: a fixed tail appended
The variants listed here are annotated with their protein stability index.
assay-metric: protein stability index

[[record]]
sequence_variant = "M8V"
numeric_value = 2.96

[[record]]
sequence_variant = "H11E"
numeric_value = 3.44

[[record]]
sequence_variant = "T18N"
numeric_value = 2.71

[[record]]
sequence_variant = "P16C"
numeric_value = 3.12

[[record]]
sequence_variant = "G17R"
numeric_value = 2.23

[[record]]
sequence_variant = "H1W"
numeric_value = 2.59

[[record]]
sequence_variant = "T18Y"
numeric_value = 2.15

[[record]]
sequence_variant = "K13H"
numeric_value = 3.04

[[record]]
sequence_variant = "H11Y"
numeric_value = 1.99

[[record]]
sequence_variant = "F4D"
numeric_value = 3.83

[[record]]
sequence_variant = "A7L"
numeric_value = 2.45

[[record]]
sequence_variant = "K15H"
numeric_value = 2.47

[[record]]
sequence_variant = "G23M"
numeric_value = 1.58

[[record]]
sequence_variant = "M8F"
numeric_value = 2.55

[[record]]
sequence_variant = "M20K"
numeric_value = 3.7

[[record]]
sequence_variant = "A7C"
numeric_value = 3.85

[[record]]
sequence_variant = "M20C"
numeric_value = 3.18

[[record]]
sequence_variant = "T18Q"
numeric_value = 2.67

[[record]]
sequence_variant = "G23S"
numeric_value = 2.76

[[record]]
sequence_variant = "G17D"
numeric_value = 3.35

[[record]]
sequence_variant = "G23A"
numeric_value = 2.42

[[record]]
sequence_variant = "G17P"
numeric_value = 2.75

